Assay: total protein half-life in vivo (active degradation + dilution); higher = more stable protein
Settings: wild type E. coli NCM3722; growth: P-lim chemostat; doubling time 6 h
Quick list: total protein half-life in vivo per entry.
property: total protein half-life in vivo (h)

sequencerecord="MSALFLAIPLTIFVLFVLPIWLWLHYSNRSGRSELSQSEQQRLAQLADEAKRMRERIQALESILDAEHPNWRDR [P0AFM9]" numericvalue=4.5
sequencerecord=MKKIPLGTTDITLSRMGLGTWAIGGGPAWNGDLDRQICIDTILEAHRCGINLIDTAPGYNFGNSEVIVGQALKKLPREQVVVETKCGIVWERKGSLFNKVGDRQLYKNLSPESIREEVAASLQRLGIDYIDIYMTHWQSVPPFFTPIAETVAVLNELKSEGKIRAIGAANVDADHIREYLQYGELDIIQAKYSILDRAMENELLPLCRDNGIVVQVYSPLEQGLLTGTITRDYVPGGARANKVWFQRENMLKVIDMLEQWQPLCARYQCTIPTLALAWILKQSDLISILSGATAPEQVRENVAALNINLSDADATLMREMAEALER numericvalue=6.34
sequencerecord="MKQLWFAMSLVTGSLLFSANASATPASGALLQQMNLASQSLNYELSFISINKQGVESLRYRHARLDNRPLAQLLQMDGPRREVVQRGNEISYFEPGLEPFTLNGDYIVDSLPSLIYTDFKRLSPYYDFISVGRTRIADRLCEVIRVVARDGTRYSYIVWMDTESKLPMRVDLLDRDGETLEQFRVIAFNVNQDISSSMQTLAKANLPPLLSVPVGEKAKFSWTPTWLPQGFSEVSSSRRPLPTMDNMPIESRLYSDGLFSFSVNVNRATPSSTDQMLRTGRRTVSTSVRDNAEITIVGELPPQTAKRIAENIKFGAAQ [P0AFX9]" numericvalue=5.88

----------
Test: total protein half-life in vivo (active degradation + dilution); higher = more stable protein
Details: wild type E. coli NCM3722; growth: N-lim chemostat; doubling time 12 h
property: total protein half-life in vivo (h)

sequencerecord="MKIAILSRDGTLYSCKRLREAAIQRGHLVEILDPLSCYMNINPAASSIHYKGRKLPHFDAVIPRIGTAITFYGTAALRQFEMLGSYPLNESVAIARARDKLRSMQLLARQGIDLPVTGIAHSPDDTSDLIDMVGGAPLVVKLVEGTQGIGVVLAETRQAAESVIDAFRGLNAHILVQEYIKEAQGCDIRCLVVGDEVVAAIERRAKEGDFRSNLHRGGAASVASITPQEREIAIKAARTMALDVAGVDILRANRGPLVMEVNASPGLEGIEKTTGIDIAGKMIRWIERHATTEYCLKTGG [P0C0U4]" valueunit=h numericvalue=6.03
sequencerecord=MAILGLGTDIVEIARIEAVIARSGDRLARRVLSDNEWAIWKTHHQPVRFLAKRFAVKEAAAKAFGTGIRNGLAFNQFEVFNDELGKPRLRLWGEALKLAEKLGVANMHVTLADERHYACATVIIES valueunit=h numericvalue=11.2
sequencerecord="MLEMLMQWYRRRFSDPEAIALLVILVAGFGIIFFFSGLLAPLLVAIVLAYLLEWPTVRLQSIGCSRRWATSIVLVVFVGILLLMAFVVLPIAWQQGIYLIRDMPGMLNKLSDFAATLPRRYPALMDAGIIDAMAENMRSRMLTMGDSVVKISLASLVGLLTIAVYLVLVPLMVFFLLKDKEQMLNAVRRVLPRNRGLAGQVWKEMNQQITNYIRGKVLEMIVVGIATWLGFLLFGLNYSLLLAVLVGFSVLIPYIGAFVVTIPVVGVALFQFGAGTEFWSCFAVYLIIQALDGNLLVPVLFSEAVNLHPLVIILSVVIFGGLWGFWGVFFAIPLATLIKAVIHAWPDGQIAQE [P0AFI9]" valueunit=h numericvalue=10.4
sequencerecord=MQCALYDAGRCRSCQWIMQPIPEQLSAKTADLKNLLADFPVEEWCAPVSGPEQGFRNKAKMVVSGSVEKPLLGMLHRDGTPEDLCDCPLYPASFAPVFAALKPFIARAGLTPYNVARKRGELKYILLTESQSDGGMMLRFVLRSDTKLAQLRKALPWLHEQLPQLKVITVNIQPVHMAIMEGETEIYLTEQQALAERFNDVPLWIRPQSFFQTNPAVASQLYATARDWVRQLPVKHMWDLFCGVGGFGLHCATPDMQLTGIEIASEAIACAKQSAAELGLTRLQFQALDSTQFATAQGDVPELVLVNPPRRGIGKPLCDYLSTMAPRFIIYSSCNAQTMAKDIRELPGFRIERVQLFDMFPHTAHYEVLTLLVKQ valueunit=h numericvalue=10.8
sequencerecord=MKKWAVIISAVGLAFAVSGCSSDYVMATKDGRMILTDGKPEIDDDTGLVSYHDQQGNAMQINRDDVSQIIER valueunit=h numericvalue=8.92
sequencerecord=MYKTIIMPVDVFEMELSDKAVRHAEFLAQDDGVIHLLHVLPGSASLSLHRFAADVRRFEEHLQHEAQERLQTMVSHFTIDPSRIKQHVRFGSVRDEVNELAEELGADVVVIGSRNPSISTHLLGSNASSVIRHANLPVLVVR valueunit=h numericvalue=6.48
sequencerecord="MSDDVALPLEFTDAAANKVKSLIADEDNPNLKLRVYITGGGCSGFQYGFTFDDQVNEGDMTIEKQGVGLVVDPMSLQYLVGGSVDYTEGLEGSRFIVTNPNAKSTCGCGSSFSI [P0ACC3]" valueunit=h numericvalue=2.43
sequencerecord=MEYQLTLNWPDFLERHWQKRPVVLKRGFNNFIDPISPDELAGLAMESEVDSRLVSHQDGKWQVSHGPFESYDHLGETNWSLLVQAVNHWHEPTAALMRPFRELPDWRIDDLMISFSVPGGGVGPHLDQYDVFIIQGTGRRRWRVGEKLQMKQHCPHPDLLQVDPFEAIIDEELEPGDILYIPPGFPHEGYALENAMNYSVGFRAPNTRELISGFADYVLQRELGGNYYSDPDVPPRAHPADVLPQEMDKLREMMLELINQPEHFKQWFGEFISQSRHELDIAPPEPPYQPDEIYDALKQGEVLVRLGGLRVLRIGDDVYANGEKIDSPHRPALDALASNIALTAENFGDALEDPSFLAMLAALVNSGYWFFEG valueunit=h numericvalue=8.11
sequencerecord=MKALSPIAVLISALLLQGCVAAAVVGTAAVGTKAATDPRSVGTQVDDGTLEVRVNSALSKDEQIKKEARINVTAYQGKVLLVGQSPNAELSARAKQIAMGVDGANEVYNEIRQGQPIGLGEASNDTWITTKVRSQLLTSDLVKSSNVKVTTENGEVFLMGLVTEREAKAAADIASRVSGVKRVTTAFTFIK valueunit=h numericvalue=11.9
sequencerecord=MFSALRHRTAALALGVCFILPVHASSPKPGDFANTQARHIATFFPGRMTGTPAEMLSADYIRQQFQQMGYRSDIRTFNSRYIYTARDNRKSWHNVTGSTVIAAHEGKAPQQIIIMAHLDTYAPLSDADADANLGGLTLQGMDDNAAGLGVMLELAERLKNTPTEYGIRFVATSGEEEGKLGAENLLKRMSDTEKKNTLLVINLDNLIVGDKLYFNSGVKTPEAVRKLTRDRALAIARSHGIAATTNPGLNKNYPKGTGCCNDAEIFDKAGIAVLSVEATNWNLGNKDGYQQRAKTPAFPAGNSWHDVRLDNHQHIDKALPGRIERRCRDVMRIMLPLVKELAKAS valueunit=h numericvalue=9.09
sequencerecord="MVLMIVSGRSGSGKSVALRALEDMGFYCVDNLPVVLLPDLARTLADREISAAVSIDVRNMPESPEIFEQAMSNLPDAFSPQLLFLDADRNTLIRRYSDTRRLHPLSSKNLSLESAIDKESDLLEPLRSRADLIVDTSEMSVHELAEMLRTRLLGKRERELTMVFESFGFKHGIPIDADYVFDVRFLPNPHWDPKLRPMTGLDKPVAAFLDRHTEVHNFIYQTRSYLELWLPMLETNNRSYLTVAIGCTGGKHRSVYIAEQLADYFRSRGKNVQSRHRTLEKRKP [P0A894]" valueunit=h numericvalue=7.88
sequencerecord=MPLSAQQLAAQKNLSYVLAEKLAQRILKGEYEPGTILPGEIELGEQFGVSRTAVREAVKTLTAKGMVLPRPRIGTRVMPQSNWNFLDQELLTWWMTEENFHQVIDHFLVMRICLEPQACLLAATVGTAEQKAHLNTLMAEMAALKENFRRERWIEVDMAWHEHIYEMSANPFLTSFASLFHSVYHTYFTSITSDTVIKLDLHQAIVDAIIQSDGDAAFKACQALLRSPDK valueunit=h numericvalue=10.5
